System: PPARg:RXRa (NR concentration 180 nM, RXRa partner concentration 90 nM)
protocolSummary: PBM binding z-score (relative to random genomic background probes); higher = stronger binding; sequences stand for … in GC…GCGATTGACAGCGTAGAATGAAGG
PBM binding z-score vs 2: at or above is rule met, below is rule not met.

Here's what some known entries look like.
Q: Check the entry `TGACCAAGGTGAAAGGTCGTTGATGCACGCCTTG` : does PBM binding z-score equal or exceed 2?
A: rule met

Q: Is reported PBM binding z-score greater than or equal to 2 here: `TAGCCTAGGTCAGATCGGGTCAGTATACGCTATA`
A: rule not met

Q: Determine whether this sequence has PBM binding z-score no lower than 2: `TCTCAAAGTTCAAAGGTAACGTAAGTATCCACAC`
A: rule met

Q: State whether the measured PBM binding z-score reaches 2, counting equality as reaching it, for `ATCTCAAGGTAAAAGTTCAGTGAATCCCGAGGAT`
A: rule met

Q: Form field: PBM binding z-score at least 2? Entry: `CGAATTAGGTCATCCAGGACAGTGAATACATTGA`
A: rule met

Moving on to the next sequence.
Q: Say whether `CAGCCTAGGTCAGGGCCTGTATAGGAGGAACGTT` shows PBM binding z-score of 2 or more.
A: rule not met
